B1: library; numbered along this chain (parent)
chain: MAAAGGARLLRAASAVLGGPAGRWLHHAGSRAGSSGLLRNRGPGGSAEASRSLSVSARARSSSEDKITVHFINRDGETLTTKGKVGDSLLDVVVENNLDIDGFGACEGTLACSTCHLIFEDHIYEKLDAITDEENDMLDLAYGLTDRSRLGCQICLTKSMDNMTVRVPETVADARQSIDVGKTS

Variants of: B1
Experiment: scaled log2 fold change in cell abundance, elesclomol vs control (0 = silent mean, 1 = nonsense mean) (scaled log2 ratio); higher = higher viability under elesclomol (loss of FDX1 cuproptosis function);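 further: variant abundance is its share of total variant reads in each endpoint sample, from next-generation sequencing of the integrated ORF PCR-amplified out of genomic DNA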
Settings: with ABC1 FDX1 KO; elesclomol 5 nM; glucose 10 mM; 14 days
Entries and their measured scaled log2 fold change follow.
// response body must contain only the number

Completed entries (count: 3):
Alteration: S113Q
scaled log2 fold change: -0.139

Alteration: R175M
scaled log2 fold change: -0.223

Alteration: C106T
scaled log2 fold change: 1.19

# context switch: different variant, same scaled log2 fold change
Input: Give its scaled log2 fold change value. Item: A2V
Output: 0.0325
